Known protein stability index of a selection of sequences
Assay Protocol: protein stability index of a GFP-peptide fusion (yeast GPS) (PSI 1-4); higher = more stable; sorted into four equal gates, so the index is relative within each strain
Condition Summary: san1∆

response.value for YTDELEEDVYLDPLARV [FAS2] (field: protein stability index) = 3.54

response.value for NKQPRNESFNRRISSMP [YAR002W/NUP60] (field: protein stability index) = 2.53

response.value for GINSKSGKPFIAGFDLI [PUP3] (field: protein stability index) = 3.3

response.value for DRINYTETALMNLKKEL [SRB5] (field: protein stability index) = 3.41

response.value for KTDLELLVERLKEDDSS [RPN1] (field: protein stability index) = 3.05

response.value for DLSTLVHSSSPSTSSNM [GAL11] (field: protein stability index) = 2.71

response.value for ANTGGQDKIELSEEETL [SNF2] (field: protein stability index) = 3.08
